As shown below, each of these compounds has a reported melting point value.
READOUT KIND: melting point

>>> reported_result("CN(C)CCc1c[nH]c2ccc(NS(=O)(=O)c3ccc(-c4ccccc4)cc3)cc12")
"184 to 186 °C"
>>> reported_result("Cc1cccc2c1N(C1CCN(CC(=O)Nc3ccc(C(F)(F)F)cc3)CC1)C(=O)OC2.Cl")
"264 to 274 °C"
>>> reported_result("Cc1ccc2c(c1)COC(=O)N2C1CCN(CC(=O)Nc2ccc(C(=O)c3ccccc3)cc2)CC1.Cl")
"240 to 244 °C"
>>> reported_result("Cl.N#Cc1ccc(NC(=O)CN2CCC(N3C(=O)OCc4ccccc43)CC2)cc1")
"268 to 282 °C"
>>> reported_result("Cl.O=C(CN1CCC(N2C(=O)OCc3cc(Cl)ccc32)CC1)Nc1ccccc1C(=O)c1ccccc1")
"167 to 178 °C"
>>> reported_result("CN1CCC(c2c[nH]c3ccc(NS(=O)(=O)c4cccc5cccnc45)cc23)CC1 [Example 16c]")
"280 °C (dec.)"
>>> reported_result("O=C(CN1CCC(N2C(=O)OCc3cccc(Cl)c32)CC1)Nc1ccc2[nH]c3ccccc3c2c1")
"180 °C"
>>> reported_result("CCCN(CCC)CCc1c[nH]c2ccc(NS(=O)(=O)c3sc4ccc(Cl)cc4c3C)cc12")
"90 to 95 °C"
>>> reported_result("O=S(=O)(Nc1ccc2c(ccn2CCN2CCCC2)c1)c1ccc2ccccc2c1 [Example 16e]")
"138 to 140 °C"
>>> reported_result("CN(C)CCn1ccc2cc(NS(=O)(=O)c3ccc4ccccc4c3)ccc21")
"54 to 57 °C"
>>> reported_result("Cl.O=C(CN1CCC(N2C(=O)OCc3ccccc32)CC1)Nc1ccc2c(c1)C(O)c1ccccc1-2 (stereo not drawn)")
"> 225 °C (dec.)"
>>> reported_result("CCN(CC)CCc1c[nH]c2ccc(NS(=O)(=O)c3ccc(Cl)s3)cc12")
"180 to 181 °C"
>>> reported_result("Cl.O=C(CN1CCC(N2C(=O)OCc3cc(Cl)ccc32)CC1)Nc1ccc2c(c1)C(=O)c1ccccc1-2")
"> 300 °C (dec.)"
>>> reported_result("CN(C)CCn1ccc2cccc(NS(=O)(=O)c3ccc(-c4ccccc4)cc3)c21")
"137 to 140 °C"
>>> reported_result("O=C(CN1CCC(N2C(=O)OCc3ccc(Cl)cc32)CC1)Nc1ccc2oc3ccccc3c2c1")
"237 °C"
>>> reported_result("Cc1cccc2c1N(C1CCN(CC(=O)Nc3ccc(C4CCCCC4)cc3)CC1)C(=O)OC2.Cl")
"249 to 253 °C"
>>> reported_result("CCN(CC)CCc1c[nH]c2ccc(NS(=O)(=O)c3cccc4ccccc34)cc12.Cl")
"255 to 257 °C"
>>> reported_result("CCCCN(CCCC)CCc1c[nH]c2ccc(NS(=O)(=O)c3cccc4ccccc34)cc12")
"111 to 113 °C"
>>> reported_result("Cc1ccc2c(c1)COC(=O)N2C1CCN(CC(=O)Nc2ccc(C3CCCCC3)cc2)CC1.Cl")
"242 to 246 °C"
>>> reported_result("Cc1cc2cc(NS(=O)(=O)c3cccc4ccccc34)ccc2n1CCN(C)C [Example 34e]")
"183 to 184 °C"
>>> reported_result("Cl.O=C(CN1CCC(N2C(=O)OCc3ccccc32)CC1)Nc1ccc(Oc2ccccc2)cc1")
"242 to 248 °C"
>>> reported_result("Cc1c(S(=O)(=O)Nc2ccc3c(ccn3CCN(C)C)c2)sc2ccc(Cl)cc12")
"71 to 73 °C"
>>> reported_result("CN(C)CCn1ccc2cc(NS(=O)(=O)c3c(Cl)nc4sccn34)ccc21 [Example 11e]")
"50 to 52 °C"
>>> reported_result("Cl.O=C(CN1CCC(N2C(=O)OCc3cc(Cl)ccc32)CC1)Nc1ccc(Oc2ccccc2)cc1")
"262 to 267 °C"
>>> reported_result("CN(C)CCn1ccc2ccc(NS(=O)(=O)c3cccc4ccccc34)cc21")
"139 to 142 °C"
>>> reported_result("O=C(CN1CCC(N2C(=O)OCc3ccccc32)CC1)Nc1ccc2c(c1)CCC2=O")
"206 to 209 °C"
>>> reported_result("CCn1c2ccccc2c2cc(NC(=O)CN3CCC(N4C(=O)OCc5cc(Cl)ccc54)CC3)ccc21.Cl")
"265 to 268 °C"
>>> reported_result("CCN(CC)CCn1ccc2cc(NS(=O)(=O)c3cccc4ccccc34)ccc21 [Example 30e]")
"133 to 135 °C"
>>> reported_result("O=S(=O)(Nc1ccc2c(ccn2CCCN2CCCCC2)c1)c1ccc2ccccc2c1")
"92 to 108 °C"
>>> reported_result("CN1CC=C(c2c[nH]c3ccc(NS(=O)(=O)c4cccc5ccccc45)cc23)CC1")
"244 to 245 °C (dec.)"
>>> reported_result("CCN(CC)CCc1c[nH]c2ccc(NS(=O)(=O)c3ccc4ccccc4c3)cc12 [Example 17c]")
"172 to 173 °C"
>>> reported_result("Cc1cccc2c1N(C1CCN(CC(=O)Nc3ccc4c(c3)C(O)c3ccccc3-4)CC1)C(=O)OC2.Cl (stereo not drawn)")
"283 to 285 °C"
>>> reported_result("CN(C)CCn1ccc2cc(NS(=O)(=O)c3cccc4cccnc34)ccc21")
"161 to 164 °C"
>>> reported_result("Cl.O=C(CN1CCC(N2C(=O)OCc3cc(Cl)ccc32)CC1)Nc1ccc(C2CCCCC2)cc1")
"249 to 256 °C"
>>> reported_result("Cl.O=C(CN1CCC(N2C(=O)OCc3ccccc32)CC1)Nc1cccc2c1-c1ccccc1C2=O")
"270 to 273 °C"
>>> reported_result("CCN(CC)CCn1ccc2cc(NS(=O)(=O)c3csc4ccccc34)ccc21 [Example 41e]")
"62 to 75 °C"

---

Parameter melting point: see the listing below.
READOUT KIND: melting point

>>> reported_result("O=S(=O)(Nc1ccc2ccn(CCN3CCCC3)c2c1)c1c(Cl)nc2sccn12 [Example 12f]")
"53 to 57 °C"
>>> reported_result("Cc1cc2cc(NS(=O)(=O)c3c(Cl)nc4sccn34)ccc2n1CCN(C)C [Example 35e]")
"182 to 183 °C"
>>> reported_result("CCN(CC)CCc1c[nH]c2ccc(NS(=O)(=O)c3c(Cl)nc4sccn34)cc12")
"197 to 198 °C"
>>> reported_result("Cc1c(S(=O)(=O)Nc2ccc3c(ccn3CCCN3CCCCC3)c2)sc2ccc(Cl)cc12 [Example 43e]")
"82 to 92 °C"
>>> reported_result("Cc1c(S(=O)(=O)Nc2cccc3ccn(CCN(C)C)c23)sc2ccc(Cl)cc12 [Example 2g]")
"57 to 65 °C"
>>> reported_result("Cc1ccc2c(c1)N(C1CCN(CC(=O)Nc3ccc4c(c3)-c3ccccc3C4O)CC1)C(=O)OC2 (stereo not drawn)")
"136 °C"
>>> reported_result("CN(C)CCn1ccc2cc(NS(=O)(=O)c3ccc(F)cc3)ccc21 [Example 26e]")
"138 to 140 °C"
>>> reported_result("O=S(=O)(Nc1ccc2ccn(CCN3CCCC3)c2c1)c1ccc(-c2ccccc2)cc1 [Example 13f]")
"178 to 181 °C"
>>> reported_result("O=C1OCc2ccccc2N1C1CCN(S(=O)(=O)c2cccc(Cl)c2Cl)CC1")
"185 to 187 °C"
>>> reported_result("Cc1cc2cc(NS(=O)(=O)c3cc(Cl)cc(Cl)c3)ccc2n1CCN(C)C [Example 39e]")
"147 to 149 °C"
>>> reported_result("CCN(c1ccccc1)c1ccc(NC(=O)CN2CCC(N3C(=O)OCc4ccccc43)CC2)cc1.Cl")
"254 to 257 °C"
>>> reported_result("Cc1ccc2c(c1)COC(=O)N2C1CCN(CC(=O)Nc2ccccc2C(F)(F)F)CC1")
"169 to 173 °C"
>>> reported_result("CN(C)CCn1ccc2cccc(NS(=O)(=O)c3c(Cl)nc4sccn34)c21 [Example 4g]")
"73 to 76 °C"
>>> reported_result("CN(C)CCn1ccc2cc(NS(=O)(=O)c3csc4ccccc34)ccc21 [Example 42e]")
"61 to 72 °C"
>>> reported_result("CN(C)CCn1ccc2cc(NS(=O)(=O)c3ccc(Br)cc3)ccc21 [Example 22e]")
"114 to 117 °C"
>>> reported_result("Cl.Cn1c2ccccc2c2cc(NC(=O)CN3CCC(N4C(=O)OCc5ccccc54)CC3)ccc21")
"191 to 193 °C"
>>> reported_result("CN1CCN(CCc2c[nH]c3ccc(NS(=O)(=O)c4ccc5ccccc5c4)cc23)CC1")
"129 to 131 °C"
>>> reported_result("CCn1c2ccccc2c2cc(NC(=O)CN3CCC(N4C(=O)OCc5cccc(C)c54)CC3)ccc21.Cl")
"229 to 232 °C"

---

As shown below, each of these compounds has a reported melting point value.
READOUT KIND: melting point

>>> reported_result("CN1CCN(Cc2c[nH]c3ccc(NS(=O)(=O)Cc4ccccc4)cc23)CC1 [Example 41c]")
"99 to 102 °C"
>>> reported_result("Cc1cccc2c1COC(=O)N2C1CCN(CC(=O)Nc2ccc3[nH]c4ccccc4c3c2)CC1")
"213 °C"
>>> reported_result("O=S(=O)(Nc1ccc2c(ccn2CCCN2CCCCC2)c1)c1cccc2ccccc12 [Example 45e]")
"105 to 107 °C"
>>> reported_result("O=S(=O)(CCc1cccc2ccccc12)Nc1cccc2ccn(CCN3CCCC3)c12")
"46 to 49 °C"
>>> reported_result("Cl.O=S(=O)(C1CCCCC1)n1cc(C2=CCN3CCCC3C2)c2cc(F)ccc21 (centres unmarked)")
"263 °C (dec.)"
>>> reported_result("CCN(CC)CCCc1c[nH]c2ccc(NS(=O)(=O)c3sc4ccc(Cl)cc4c3C)cc12 [Example 43c]")
"156 to 158 °C"
>>> reported_result("Cc1c(S(=O)(=O)Nc2cccc3ccn(CCN4CCCC4)c23)sc2ccc(Cl)cc12")
"82 to 85 °C"
>>> reported_result("O=S(=O)(Nc1ccc2[nH]cc(CCN3CCOCC3)c2c1)c1ccc(-c2ccccc2)cc1 [Example 51c]")
"225 to 228 °C"
